# Assayed target: human DR5 (human)
# Protocol description: SPR (BIAcore X100), human DR5 on CM5 chip, IgG injected, 1:1 Langmuir model
Assay metric: Kd (pM)
Express your answer in pM, writing the number without its unit.

{"Binder": "DA33 (antibody, V domains shown) VH: AVTLDESGGGLQTPGGGLSLVCKGSGFTFSSFNMLWVRQAPGKGLEWVAGIGKSDRYTGYGSAVKGRATISRDDGQSTARLQLNNLRAEDTAVYYCVKDAGSGCGSGGWTGACIDTWGHGTEVIVSS VL: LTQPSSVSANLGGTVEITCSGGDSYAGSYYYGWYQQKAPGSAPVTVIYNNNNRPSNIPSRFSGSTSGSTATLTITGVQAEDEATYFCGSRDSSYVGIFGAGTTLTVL", "Recorded measurement": 78.8}

Query block: What measured Kd goes with DA15 (antibody, V domains shown) VH: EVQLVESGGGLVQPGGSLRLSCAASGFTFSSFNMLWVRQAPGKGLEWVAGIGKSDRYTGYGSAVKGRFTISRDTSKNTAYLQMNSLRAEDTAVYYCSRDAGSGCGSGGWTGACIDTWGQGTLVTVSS VL: DIQMTQSPSSLSASVGDRVTITCSGGDSYAGSYYYGWYQQKPGKAPKTLIYNNNNRPSGVPSRFSGSRSGTDFTLTISSLQPEDFATYYCGSRDSDGGGRFGQGTKVEIK ?
Result block: 1.09

Query block: Next binder up: DA7 (antibody, V domains shown) VH: EVQLVESGGGLVQPGGSLRLSCAASGFTFSSFNMLWVRQAPGKGLEWVAGIGKSDRYTGYGSAVKGRFTISRDDSKSTVYLQMNSLRAEDTAVYYCSRDAGSGCGSGGWTGACIDTWGQGTLVTVSS VL: DIQMTQSPSSLSASVGDRVTITCSGGDSYAGSYYYGWYQQKPGKAPKTLIYNNNNRPSGVPSRFSGSTSGTDFTLTISSLQPEDFATYYCGSRDSSYVGIFGQGTKVEIK
Result block: 1.9

Query block: Next binder up: DA22 (antibody, V domains shown) VH: EVQLVESGGGLVQPGGSLRLSCAASGFTFSSFNMLWVRQAPGKGLEWVAGIGKSDRYTGYGSAVKGRFTISRDDSKSTVYLQMNSLRAEDTAVYYCVRDAGSPCGSGGWTGACIDTWGQGTLVTVSS VL: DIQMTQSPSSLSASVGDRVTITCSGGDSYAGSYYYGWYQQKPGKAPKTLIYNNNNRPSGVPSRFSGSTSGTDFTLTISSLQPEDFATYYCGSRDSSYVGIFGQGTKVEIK
Result block: 34.2

Query block: Next binder up: DA35 (antibody, V domains shown) VH: AVTLDESGGGLQTPGGGLSLVCKGSGFTFSSFNMLWVRQAPGKGLEWVAGIGKSDRYTGYGSAVKGRATISRDDGQSTARLQMNSLRAEDTAVYYCVKDAGSGCGSGGWTGACIDTWGHGTEVIVSS VL: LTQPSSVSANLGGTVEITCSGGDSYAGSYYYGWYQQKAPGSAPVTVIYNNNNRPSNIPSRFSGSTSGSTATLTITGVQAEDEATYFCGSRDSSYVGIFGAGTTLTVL
Result block: 80.1

Query block: Next binder up: DA20 (antibody, V domains shown) VH: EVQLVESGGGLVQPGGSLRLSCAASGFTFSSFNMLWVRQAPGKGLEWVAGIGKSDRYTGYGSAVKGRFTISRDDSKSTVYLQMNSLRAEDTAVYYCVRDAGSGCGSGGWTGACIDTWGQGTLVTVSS VL: DIQMTQSPSSLSASVGDRVTITCSGGDSYAGSYYYGWYQQKPGKAPKTLIYNNNNRPSGVPSRFSGSRSGTDFTLTISSLQPEDFATYYCGSRDSAGMGAFGQGTKVEIK
Result block: 12

Query block: Next binder up: DA6 (antibody, V domains shown) VH: EVQLVESGGGLVQPGGSLRLSCAASGFTFSSFNMLWVRQAPGKGLEWVAGIGKSDRYTGYGSAVKGRFTISRDDSKSTVYLQMNSLRAEDTAVYYCARDAGSGCGSGGWTGACIDTWGQGTLVTVSS VL: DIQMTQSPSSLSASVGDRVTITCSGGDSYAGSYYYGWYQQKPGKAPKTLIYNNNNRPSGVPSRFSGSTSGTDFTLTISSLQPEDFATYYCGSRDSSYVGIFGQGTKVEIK
Result block: 0.53

Query block: Next binder up: DA21 (antibody, V domains shown) VH: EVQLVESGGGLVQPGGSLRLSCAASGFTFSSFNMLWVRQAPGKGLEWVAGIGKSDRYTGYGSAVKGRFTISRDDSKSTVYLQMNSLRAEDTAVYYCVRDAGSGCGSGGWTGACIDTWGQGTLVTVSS VL: DIQMTQSPSSLSASVGDRVTITCSGGDSYAGSYYYGWYQQKPGKAPKTLIYNNNNRPSGVPSRFSGSRSGTDFTLTISSLQPEDFATYYCGSRDSSGAGGFGQGTKVEIK
Result block: 6.43

Query block: Next binder up: DA14 (antibody, V domains shown) VH: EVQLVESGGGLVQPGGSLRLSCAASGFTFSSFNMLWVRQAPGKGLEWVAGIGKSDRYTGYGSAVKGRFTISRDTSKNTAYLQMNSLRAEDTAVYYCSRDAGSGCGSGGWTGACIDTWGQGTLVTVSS VL: DIQMTQSPSSLSASVGDRVTITCSGGDSYAGSYYYGWYQQKPGKAPKTLIYNNNNKAKGVPSRFSGSRSGTDFTLTISSLQPEDFATYYCGSRDSSYVGIFGQGTKVEIK
Result block: 23.5

Query block: Next binder up: DA4 (antibody, V domains shown) VH: EVQLVESGGGLVQPGGSLRLSCAASGFTFSSFNMLWVRQAPGKGLEWVAGIGKSDRYTGYGSAVKGRFTISRDDSKNTVYLQMNSLRAEDTAVYYCVRDAGSGCGSGGWTGACIDTWGQGTLVTVSS VL: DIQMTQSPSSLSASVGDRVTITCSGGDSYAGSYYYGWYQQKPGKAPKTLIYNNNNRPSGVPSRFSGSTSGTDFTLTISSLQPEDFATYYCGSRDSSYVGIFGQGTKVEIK
Result block: 0.1
